Tested on: SUDIPGVI (diffuse intrinsic pontine glioma line)
assay: growth inhibition (% activity, log2 RLU normalised to DMSO / staurosporine); higher = more growth inhibition
experimentalSetup: 33 µM
observationType: growth inhibition (%)
One number for each entry, in %.

Previously resolved entries follow.
compound | endpointUnit | growth inhibition
CC(=O)[C@H]1CC[C@H]2[C@@H]3C=CC4=CC(=O)CC[C@@]4(C)[C@@H]3CC[C@]12C | % | 0.865
CS(=O)(=O)Nc1ccc([N+](=O)[O-])cc1Oc1ccccc1 | % | -1.3
CCn1cc(C(=O)O)c(=O)c2cc(F)c(N3CCNCC3)cc21 | % | 0.897

Each compound below has a reported value. Please supply its growth inhibition.
1. Cc1cc2c(s1)Nc1ccccc1N=C2N1CCN(C)CC1
2. CC(C)NCC(O)c1ccc(O)c(O)c1 (stereo not given)
3. CCCCC(=O)N(Cc1ccc(-c2ccccc2-c2nnn[nH]2)cc1)[C@H](C(=O)O)C(C)C

1. 3.75
2. -4.2
3. -0.599

# map each compound to its growth inhibition
1. COC1=C(OC)C(=O)C(CCCCCCCCCCO)=C(C)C1=O
2. C#C[C@]1(OC(C)=O)CC[C@H]2[C@@H]3CCC4=C[C@@H](OC(C)=O)CC[C@@H]4[C@H]3CC[C@@]21C
3. CCN(CC)CCOC(=O)C1(C2CCCCC2)CCCCC1
4. CC(C)(C)c1nc(-c2cccc(NS(=O)(=O)c3c(F)cccc3F)c2F)c(-c2ccnc(N)n2)s1

1: 3.24; 2: 1.15; 3: -0.615; 4: -1.37

For each of the compounds below, note its growth inhibition.
1. CCCCNc1ccc(C(=O)OCCN(C)C)cc1
2. CCCCCCCCCC(=O)NC1C(Oc2c3cc4cc2Oc2ccc(cc2Cl)C(OC2OC(CO)C(O)C(O)C2NC(C)=O)C2NC(=O)C(NC(=O)C4NC(=O)C4NC(=O)C(Cc5ccc(c(Cl)c5)O3)NC(=O)C(N)c3ccc(O)c(c3)Oc3cc(O)cc4c3)c3ccc(O)c(c3)-c3c(OC4OC(CO)C(O)C(O)C4O)cc(O)cc3C(C(=O)O)NC2=O)OC(CO)C(O)C1O (stereo not given)

-2.2
0.462

Quick batch: growth inhibition for everything below.
1. NCCS
2. CN1CCN(c2cc3c(cc2F)c(=O)c(C(=O)O)cn3-c2ccc(F)cc2)CC1
3. CC(C(=O)O)c1ccc(C(=O)c2cccs2)cc1 (stereo not given)
4. COc1cc(/C=C/C(=O)N2CCN(CC(=O)N3CCCC3)CC2)cc(OC)c1OC
5. CN(C)C(=N)NC(=N)N

[-5.68, 1.63, 0.938, -3.03, -9.44]
